- System: HEK293 cells
- PROTOCOL_DESCRIPTION: Preliminary screening as mRNA vectors, EGFP mRNA transfection of HEK293 cells
- Type: cell-based
- ASSAY_CONDITIONS: EGFP mRNA 50 ng per well, 96-well plates; percentage of GFP fluorescent cells relative to total number of cells (Hoechst)
Outcome label depends on Absolute mRNA transfection efficiency in HEK293 cells relative to 4%: at/above gives Criterion met, below gives Criterion not met.

{"COMPOUND": "CCCCCCCCCCCCCCCCCCNc1nc(NCCCN(C)C)nc(SCCCCCCCCC)n1 [Compound D6S9N18]", "ASSIGNED_CATEGORY": "Criterion met"}
{"COMPOUND": "CCCCCCCCCSc1nc(NCCN(C)C)nc(SCCCCCCC)n1 [Compound D1S7S9]", "ASSIGNED_CATEGORY": "Criterion met"}
{"COMPOUND": "CCCCCCCCCCCCSc1nc(NCCN2CCOCC2)nc(SCCCCCCC)n1 [Compound D2S7S12]", "ASSIGNED_CATEGORY": "Criterion met"}
{"COMPOUND": "CCCCCCCCCCCCCNc1nc(NCCN2CCCCC2)nc(SCCCCCCCC)n1 [Compound D4S8N13]", "ASSIGNED_CATEGORY": "Criterion met"}
{"COMPOUND": "CCCCCCCCCCCCCCCCSc1nc(NCCN2CCN(C)CC2)nc(N(CCCCCCCCCCCC)CCCCCCCCCCCC)n1 [D5S16^2N12]", "ASSIGNED_CATEGORY": "Criterion not met"}
{"COMPOUND": "CCCCCCCCCCCCCCCSc1nc(NCCN2CCCCC2)nc(SCCCCCCC)n1 [Compound D4S7S15]", "ASSIGNED_CATEGORY": "Criterion met"}
{"COMPOUND": "CCCCCCCCCCCCCCSc1nc(NCCCCCCC)nc(NCCN2CCOCC2)n1 [Compound D2S14N7]", "ASSIGNED_CATEGORY": "Criterion met"}
{"COMPOUND": "CCCCCCCCCCCCCCCCCCNc1nc(NCCCN2CCN(C)CC2)nc(SCCCCCCCCCCCC)n1 [Compound D9S12N18]", "ASSIGNED_CATEGORY": "Criterion not met"}
{"COMPOUND": "CCCCCCCCCCCCCCCCCCNc1nc(NCCN2CCOCC2)nc(SCCCCCCCCCCCCCCC)n1 [Compound D2S15N18]", "ASSIGNED_CATEGORY": "Criterion not met"}
{"COMPOUND": "CCCCCCCCCSc1nc(NCCCN2CCN(C)CC2)nc(SCCCCCCC)n1 [Compound D9S7S9]", "ASSIGNED_CATEGORY": "Criterion met"}
{"COMPOUND": "CCCCCCCCSc1nc(NCCCCCC)nc(NCCN2CCN(C)CC2)n1 [Compound D5S8N6]", "ASSIGNED_CATEGORY": "Criterion not met"}
{"COMPOUND": "CCCCCCCCCCCCSc1nc(NCCN2CCOCC2)nc(N(CCCCCCCCCCCC)CCCCCCCCCCCC)n1 [D2S12^2N12]", "ASSIGNED_CATEGORY": "Criterion not met"}
{"COMPOUND": "CCCCCCCCCCCCCCCCNc1nc(NCCN(C)C)nc(SCCCCCCCCCCCCCCCC)n1 [Compound D1S16N16]", "ASSIGNED_CATEGORY": "Criterion not met"}
{"COMPOUND": "CCCCCCCCCNc1nc(NCCN2CCCC2)nc(SCCCCCC)n1 [Compound D3S6N9]", "ASSIGNED_CATEGORY": "Criterion not met"}
{"COMPOUND": "CCCCCCCCCCCCCCCCCCSc1nc(NCCN2CCCC2)nc(SCCCCCCC)n1 [Compound D3S7S18]", "ASSIGNED_CATEGORY": "Criterion met"}
{"COMPOUND": "CCCCCCCCCCCCCCCNc1nc(NCCCN(C)C)nc(SCCCCCCCCC)n1 [Compound D6S9N15]", "ASSIGNED_CATEGORY": "Criterion met"}
{"COMPOUND": "CCCCCCCCCCCSc1nc(NCCN(C)C)nc(SCCCCCC)n1 [Compound D1S6S11]", "ASSIGNED_CATEGORY": "Criterion not met"}

----------
Below, each entry is listed with its recorded Particle size (nm).
- PROTOCOL_DESCRIPTION: Particle size and PDI of lipid nanoparticles (Nano-ZSZEN3600, Malvern)
- Assay type: physicochemical
- ASSAY_CONDITIONS: LNPs, Formulation Method 1 (amino lipid:DOPE:cholesterol:PEG2000-DMG 45:10:42.5:2.5), Fluc mRNA

{"MOLECULE": "CCCCCCCCCCCCCCCCSc1nc(NCC2CCN(C)CC2)nc(SCCCCCCCCCC)n1 [Compound S10S16D10]", "Particle size (nm)": "136 ± 5 nm"}
{"MOLECULE": "CCCCCCCCCCCCCCCCSc1nc(NCCCCCCCCC)nc(NCCN2CCCC2)n1 [Compound S16N9D3]", "Particle size (nm)": "87 ± 4 nm"}
{"MOLECULE": "CCCCCCCCCCCCCCCCSc1nc(NCCCCCCCC)nc(NCC2CCN(C)CC2)n1 [Compound S16N8D10]", "Particle size (nm)": "90 ± 5 nm"}
{"MOLECULE": "CCCCCCCC/C=C\\CCCCCCCCSc1nc(OCCN2CCCC2)nc(SCCCCCCCCC)n1 [Compound S19S9O8]", "Particle size (nm)": "88 ± 5 nm"}

----------
- System: HEK293 cells
- PROTOCOL_DESCRIPTION: Preliminary screening as DNA vectors, GFP transfection of HEK293 cells
- Assay type: cell-based
- ASSAY_CONDITIONS: HEK293 cells; lipid/DOPE liposome with 75 ng plasmid DNA (psin-EGFP-IRES-Puro); number of cells expressing GFP divided by total number of nuclei (Hoechst)
Below, each entry is listed with its recorded Absolute DNA transfection efficiency in HEK293 cells.
REPORTED_PROPERTY: Absolute DNA transfection efficiency in HEK293 cells (%)

{"COMPOUND": "CCCCCCCCCCCCCNc1nc(NCCCCCCCCCCC)nc(NCCN(C)C)n1 [Compound N11N13D1]", "OBSERVED": 1.4}
{"COMPOUND": "CCCCCCCCCCCCNc1nc(NCCCCCCCCCCCC)nc(NCCCN2CCOCC2)n1 [Compound N12N12D8]", "OBSERVED": 0.0}
{"COMPOUND": "CCCCCCCCCCCCCCCCSc1nc(NCCN(C)C)nc(SCCCCCCCCCCCC)n1 [Compound S12S16D1]", "OBSERVED": 0.6}
{"COMPOUND": "CCCCCCCCCCCCCCCCCCSc1nc(NCC2CCN(C)CC2)nc(SCCCCCCCCC)n1 [Compound S9S18D10]", "OBSERVED": 7.0}
{"COMPOUND": "CCCCCCCCCCCCCNc1nc(NCCCCCCCCCCCCC)nc(NCCCN2CCN(C)CC2)n1 [Compound N13N13D9]", "OBSERVED": 1.1}
{"COMPOUND": "CCCCCCCCCCCCCCCCNc1nc(NCCN2CCCC2)nc(N(CCCCCCCCCCCC)CCCCCCCCCCCC)n1 [N16^2N12D3]", "OBSERVED": 2.0}
{"COMPOUND": "CCCCCCCCNc1nc(NCCCCCCC)nc(NCCN(C)C)n1 [Compound N7N8D1]", "OBSERVED": 0.2}
{"COMPOUND": "CCCCCCCCCCCCCCCCSc1nc(NCCCN2CCOCC2)nc(SCCCCCCCCCCC)n1 [Compound S11S16D8]", "OBSERVED": 4.7}
{"COMPOUND": "CCCCCCCCCCCCCCCCCCSc1nc(NCC2CCN(C)CC2)nc(SCCCCCCCCCCCC)n1 [Compound S12S18D10]", "OBSERVED": 7.5}
{"COMPOUND": "CCCCCCCCCCCCCCCNc1nc(NCCCCCC)nc(NCCCN2CCN(C)CC2)n1 [Compound N6N15D9]", "OBSERVED": 0.1}
{"COMPOUND": "CCCCCCCCCCCCN(CCCCCCCCCCCC)c1nc(NCCN(C)C)nc(N(CCCCCCCCCCCC)CCCCCCCCCCCC)n1 [2N12^2N12D1]", "OBSERVED": 0.4}
{"COMPOUND": "CCCCCCCCCCCNc1nc(NCCCCCC)nc(NCCCN(C)C)n1 [Compound N6N11D6]", "OBSERVED": 0.2}
{"COMPOUND": "CCCCCCCCCCCCCCCCCCNc1nc(NCCCCCCCCCCCCC)nc(NCCN(CC)CC)n1 [Compound N13N18D7]", "OBSERVED": 3.7}
{"COMPOUND": "CCCCCCCCCSc1nc(NCCN(C)C)nc(SCCCCCCCCC)n1 [Compound S9S9D1]", "OBSERVED": 12.9}
{"COMPOUND": "CCCCCCCCCCCNc1nc(NCCCCCCCC)nc(NCCCN2CCN(C)CC2)n1 [Compound N8N11D9]", "OBSERVED": 0.0}
{"COMPOUND": "CCCCCCCCCCCCSc1nc(NCCN(CC)CC)nc(SCCCCCCCCCCCC)n1 [Compound S12S12D7]", "OBSERVED": 3.3}
